measured-on: GPR139 (Homo sapiens, UniProt Q6DWJ6)
Sequence (Q6DWJ6 1-353): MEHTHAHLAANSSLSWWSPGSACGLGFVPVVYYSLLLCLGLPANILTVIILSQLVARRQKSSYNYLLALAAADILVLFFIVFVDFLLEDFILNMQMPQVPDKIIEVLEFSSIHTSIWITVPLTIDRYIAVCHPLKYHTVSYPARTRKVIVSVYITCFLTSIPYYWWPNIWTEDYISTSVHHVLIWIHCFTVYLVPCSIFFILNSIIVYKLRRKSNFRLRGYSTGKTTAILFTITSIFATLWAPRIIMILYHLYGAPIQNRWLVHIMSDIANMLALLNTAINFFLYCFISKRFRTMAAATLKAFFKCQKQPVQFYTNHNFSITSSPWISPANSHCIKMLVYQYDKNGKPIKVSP
assay-text: GPR139 Agonist titration / agonist counterscreen assay (calcium detection, HEK-GPR139 cells)
Type: cell-based
Set-up: expressed in transfected cells; host or cells: HEK Aequorin cells, Maxcyte transient transfection
measurement-conditions: GPR139 Agonist Activity
measurement-name: Lipophilic Efficiency (logP)

Before answering, review these 10 worked examples.
molecule	Lipophilic Efficiency (logP)
N[C@H](Cc1ccccc1Cl)c1nc2ccc(-c3ccncc3)cc2[nH]1.O=C(O)C(F)(F)F.O=C(O)C(F)(F)F [SR-00000003277]	2.32
Cc1ccc2c(c1)-c1c(cnn1CC(=O)Nc1ccc(F)cc1)CO2 [SR-01000136273]	2.47
O=C(CCc1ccccc1)Nc1nnc(Cc2cccs2)o1 [SR-01000920660]	3.39
Cc1[nH]c(=O)[nH]c(=O)c1/C=N\NC(=O)CCc1ccc(OC(C)C)cc1 [SR-01000357697]	4.74
CCSc1nc2sccn2c(=O)c1C(=O)NC(C)c1ccccc1 (stereo not shown) [SR-01000378352]	2.89
O=C(CC1C(=O)N(c2ccccc2)C(=O)N1Cc1ccc2c(c1)OCO2)Nc1ccc(Cl)cc1 (stereo not shown) [SR-01000428566]	1.52
O=C(Cn1ncc2c1-c1ccccc1OC2)Nc1ccc(CCO)cc1 [SR-01000098914]	3.66
Cc1cccc(CNC(=O)Nc2ccc(-c3cn[nH]c3)cc2)c1.O=C(O)C(F)(F)F [SR-00000005301]	3.26
CC(C)C(=O)NNC(=O)C(C)Oc1ccc(Cl)cc1Cl (stereo not shown) [SR-01000361172]	2.78
O=c1cc(-c2ccccc2)[nH]c2nc(OCc3cccc([N+](=O)[O-])c3)nn12 [SR-01000289377]	3.01

[a] COc1cc(OC)cc(C(=O)NNC(=O)COc2cc(C)c(Cl)c(C)c2)c1 [SR-01000358286]
[b] CC12C=CC3(CN(Cc4ccccc4)C(=O)C3C1C(=O)NCC1COc3ccccc3O1)O2 (stereo not shown) [SR-01000582967]
Prompt line: Please indicate which has the smaller reported Lipophilic Efficiency (logP): a , or b . Refer to your chosen item by its label in the answer.
Response line: a
